Quick reference for Ki among some compounds
Target: MC3-R (Homo sapiens, UniProt P41968)
Sequence (P41968 whole entry): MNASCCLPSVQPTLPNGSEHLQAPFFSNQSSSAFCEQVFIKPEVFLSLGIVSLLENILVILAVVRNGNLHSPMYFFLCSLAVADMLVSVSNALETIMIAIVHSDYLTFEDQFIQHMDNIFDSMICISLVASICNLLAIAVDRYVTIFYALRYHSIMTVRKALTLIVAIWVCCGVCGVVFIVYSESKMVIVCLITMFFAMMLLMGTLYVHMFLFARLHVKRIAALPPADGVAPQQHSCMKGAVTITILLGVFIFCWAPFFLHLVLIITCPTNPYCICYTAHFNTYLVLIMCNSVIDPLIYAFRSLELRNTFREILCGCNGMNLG
Test: Ki determination by the method of Example 4, MC3-R
Type: binding
Parameters: expressed in transfected cells; host or cells: HEK-293
Conditions: bound in μM; read-out: Ki MC3-R

Recorded Ki, per entry:
NCCCNC(=O)[C@@H]1C[C@@H](OCc2ccccc2)CN1C(=O)[C@@H](Cc1ccc(Cl)cc1)NC(=O)[C@H]1Cc2ccccc2CN1 :: > 1 µM
NCCCNC(=O)C1CC(OCc2ccccc2)CN1C(=O)C(Cc1ccc(Cl)cc1)NC(=O)C1Cc2ccccc2CN1 (stereo not drawn) :: > 1 µM

Proceeding to the next compound to report its Ki.
Ask: Specify Ki for NCCCNC(=O)[C@@H]1C[C@@H](OCc2ccccc2)CN1C(=O)[C@@H](Cc1ccccc1)NC(=O)[C@H]1Cc2ccccc2CN1 and stop.
Reply: > 1 µM

###

Biological target: MC4-R (HEK-293 cells) (Homo sapiens)
Construct: expressed in transfected cells; host or cells: HEK-293
Experiment: cAMP assay for agonist/antagonist status, MC4-R
Format: cell-based
experimental readout: agonist/antagonist status as to MC4-R

NCCC[C@H]1C(=O)N(CCc2ccc3ccccc3c2)CCN1C(=O)[C@@H](Cc1ccc(Cl)cc1Cl)NC(=O)[C@@H](N)COCc1ccccc1 [Example 52] :: agonist
NCCCC[C@H]1C(=O)N(CCc2ccc3ccccc3c2)CCN1C(=O)[C@@H](Cc1ccc(Cl)cc1Cl)NC(=O)[C@@H]1C[C@@H](OCc2ccccc2)CN1 [Example 25] :: agonist
NCCCC[C@H]1C(=O)N(CCc2ccc3ccccc3c2)CCN1C(=O)[C@@H](Cc1ccc(Cl)cc1Cl)NC(=O)c1cccc(Oc2ccccc2)c1 [Example 38] :: antagonist
NCCCC[C@H]1C(=O)N(CCc2ccc3ccccc3c2)CCN1C(=O)[C@@H](Cc1ccc(Cl)cc1Cl)NCc1ccc2ccccc2c1 [Example 41] :: antagonist
NCCCC[C@H]1C(=O)N(CCc2ccc3ccccc3c2)CCN1C(=O)[C@@H](Cc1ccc(Cl)cc1Cl)NC(=O)C/C=C/c1ccccc1 [Example 33] :: antagonist

Proceeding to the next compound to report its agonist/antagonist status as to MC4-R.
Ask: Specify agonist/antagonist status as to MC4-R for N=C(N)NCCC[C@H]1C(=O)N2C(CC[C@@H]2COc2ccc3ccccc3c2)N1C(=O)[C@@H](Cc1ccc(Cl)cc1Cl)NC(=O)[C@@H]1Cc2ccccc2CN1 (stereo partly drawn) [Example 112] and stop.
Reply: antagonist

###

Molecular target: MC5-R (HEK-293 cells) (Homo sapiens, UniProt P33032)
Construct: expressed in transfected cells; host or cells: HEK-293
Sequence (P33032 whole entry): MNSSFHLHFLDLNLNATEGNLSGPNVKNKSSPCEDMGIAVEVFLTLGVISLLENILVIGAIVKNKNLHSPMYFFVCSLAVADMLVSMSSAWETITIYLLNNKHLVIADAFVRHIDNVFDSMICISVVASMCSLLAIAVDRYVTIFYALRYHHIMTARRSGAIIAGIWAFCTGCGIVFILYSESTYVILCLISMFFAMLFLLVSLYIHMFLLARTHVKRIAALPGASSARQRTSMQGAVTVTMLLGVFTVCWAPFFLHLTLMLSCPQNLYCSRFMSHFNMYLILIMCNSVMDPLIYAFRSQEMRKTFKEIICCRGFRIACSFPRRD
Test: cAMP assay for agonist/antagonist status, MC5-R
Assay type: cell-based
experimental readout: agonist/antagonist status as to MC5-R

NCCCC[C@H]1C(=O)N(CCc2ccc3ccccc3c2)CCN1C(=O)[C@@H](Cc1ccc(Cl)cc1Cl)NC(=O)[C@@H]1Cc2ccccc2CN1 :: agonist
NCCCC[C@H]1C(=O)N(CCc2ccc3ccccc3c2)CCN1C(=O)[C@@H](Cc1ccc(Cl)cc1Cl)NC(=O)C/C=C/c1ccccc1 :: agonist
C[C@@H](OCc1ccccc1)[C@H](N)C(=O)N[C@H](Cc1ccc(Cl)cc1Cl)C(=O)N1CCN(CCc2ccc3ccccc3c2)C(=O)[C@@H]1CCCCN :: agonist

###

Target: MC4-R (Homo sapiens, UniProt P32245)
Sequence (P32245 whole entry): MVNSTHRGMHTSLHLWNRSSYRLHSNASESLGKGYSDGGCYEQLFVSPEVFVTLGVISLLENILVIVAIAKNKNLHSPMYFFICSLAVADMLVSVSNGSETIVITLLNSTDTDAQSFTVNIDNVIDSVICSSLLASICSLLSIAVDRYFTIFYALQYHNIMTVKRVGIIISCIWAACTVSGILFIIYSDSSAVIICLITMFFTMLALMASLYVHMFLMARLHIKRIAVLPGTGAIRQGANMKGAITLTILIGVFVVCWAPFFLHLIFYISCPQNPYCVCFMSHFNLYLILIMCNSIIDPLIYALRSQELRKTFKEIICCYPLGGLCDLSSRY
Assay: Competitive inhibition binding assay, 125I-NDP-α-MSH, MC4-R
Design: expressed in transfected cells
Details: 1 μM compound; inhibition of 125I-NDP-α-MSH binding; mean of triplicates; results less than 0% reported as 0%
experimental readout: Inhibition at 1 μM MC4-R (%)

Recorded Inhibition at 1 μM MC4-R, per entry:
N=C(N)NCCC[C@H]1C(=O)N(CCc2c[nH]c3ccccc23)CCN1C(=O)[C@@H](Cc1ccccc1Cl)NC(=O)[C@@H](N)COCc1ccccc1 :: 98
Cc1ccc(CCN2CCN(C(=O)[C@H](N)Cc3ccc(Cl)cc3Cl)[C@@H](CCCNC(=N)N)C2=O)cc1 :: 78
N=C(N)c1ccc(C[C@H]2C(=O)N(CCc3ccc4ccccc4c3)CCN2C(=O)[C@H](N)Cc2ccc(Cl)cc2Cl)cc1 :: 31
NCCCC[C@H]1C(=O)N2C(CC[C@@H]2COc2ccc3ccccc3c2)N1C(=O)[C@@H](Cc1ccccc1Cl)NC(=O)[C@@H]1CC[C@H](c2ccccc2)N1 (stereo partly drawn) :: 44
NCCCNC(=O)[C@@H]1C[C@@H](OCc2ccccc2)CN1C(=O)[C@@H](Cc1ccccc1)NC(=O)[C@H](Cc1cnc[nH]1)NC(=O)CC1CCCCC1 :: 0

a = CCCCCCC(=O)N[C@@H](COCc1ccccc1)C(=O)N[C@H](Cc1ccccc1Cl)C(=O)N1CCN(CCc2c[nH]c3ccccc23)C(=O)[C@@H]1CCCCN
b = NCCC[C@H]1C(=O)N(CCc2ccc3ccccc3c2)CCN1C(=O)[C@H](N)Cc1ccc(Cl)cc1Cl
c = NCCCC[C@H]1C(=O)N2C(CC[C@@H]2COc2ccc3ccccc3c2)N1C(=O)[C@@H](Cc1ccccc1Cl)NC(=O)[C@@H]1C[C@H](Oc2ccccc2)CN1 (stereo partly drawn)
Ask: Arrange the 3 entries by Inhibition at 1 μM MC4-R so the values rise. Form entry: labels listed in requested order.
Reply: c, b, a
(c: 22%, b: 43%, a: 99%)

1 = N=C(N)NCCCC[C@H]1C(=O)N(CCc2ccc3ccccc3c2)CCN1C(=O)[C@H](N)Cc1ccc(Cl)cc1Cl
2 = NCCCNC(=O)[C@@H]1C[C@@H](OCc2ccccc2)CN1C(=O)[C@@H](Cc1ccccc1)NC(=O)[C@@H](N)Cc1ccc2ccccc2c1
Ask: Would you mind telling me which has the lower recorded Inhibition at 1 μM MC4-R between 1 and 2 ? Give the chosen item's label as your response.
Reply: 2
(2: 13%, 1: 96%)

A = N=C(N)NCCC[C@H]1C(=O)N2C(CC[C@@H]2COc2ccc3ccccc3c2)N1C(=O)[C@@H](Cc1ccc(Cl)cc1Cl)NC(=O)[C@@H]1C[C@@H](OCc2ccccc2)CN1 (stereo partly drawn)
B = NCCCNC(=O)[C@@H]1C[C@@H](OCc2ccccc2)CN1C(=O)[C@@H](Cc1ccccc1)NC(=O)c1ccc(CN)cc1
Ask: Parameter check: reported Inhibition at 1 μM MC4-R is higher for which label, A or B ? Give the chosen item's label as your response.
Reply: A

I = N=C(N)NCCC[C@H]1C(=O)N2C(CC[C@@H]2COc2ccc3ccccc3c2)N1C(=O)[C@@H](Cc1ccccc1Cl)NC(=O)[C@@H]1C[C@@H](OCc2ccccc2)CN1 (stereo partly drawn)
II = NC(=O)CC[C@H]1C(=O)N(CCc2ccc3ccccc3c2)CCN1C(=O)[C@H](N)Cc1ccc(Cl)cc1Cl
Ask: Parameter check: reported Inhibition at 1 μM MC4-R is higher for which label, I or II ? Give the chosen item's label as your response.
Reply: I
